Test: Half life in Sprague-Dawley rat at 3 mg/kg, iv
Assay type: ADME, organism-based
Design: dose 3 mg/kg, route intravenous
Conditions: in vivo
This section presents compounds with their documented half-life values.
Write it as a number; the unit min goes unstated.

testSmiles | half-life [min]
COc1ccc([C@@H](C)N[C@H](C)c2ccccc2)cc1-c1ccc(C(F)(F)F)cc1 | 558

Moving on to the next compound.
What value of half-life has been recorded for this entry: "COc1ccc(CN[C@H](C)c2ccccc2)cc1-c1ccc(C(F)(F)F)cc1" 366

---

Target: Extracellular calcium-sensing receptor (Homo sapiens) (UniProt P41180)
Sequence (P41180 whole entry): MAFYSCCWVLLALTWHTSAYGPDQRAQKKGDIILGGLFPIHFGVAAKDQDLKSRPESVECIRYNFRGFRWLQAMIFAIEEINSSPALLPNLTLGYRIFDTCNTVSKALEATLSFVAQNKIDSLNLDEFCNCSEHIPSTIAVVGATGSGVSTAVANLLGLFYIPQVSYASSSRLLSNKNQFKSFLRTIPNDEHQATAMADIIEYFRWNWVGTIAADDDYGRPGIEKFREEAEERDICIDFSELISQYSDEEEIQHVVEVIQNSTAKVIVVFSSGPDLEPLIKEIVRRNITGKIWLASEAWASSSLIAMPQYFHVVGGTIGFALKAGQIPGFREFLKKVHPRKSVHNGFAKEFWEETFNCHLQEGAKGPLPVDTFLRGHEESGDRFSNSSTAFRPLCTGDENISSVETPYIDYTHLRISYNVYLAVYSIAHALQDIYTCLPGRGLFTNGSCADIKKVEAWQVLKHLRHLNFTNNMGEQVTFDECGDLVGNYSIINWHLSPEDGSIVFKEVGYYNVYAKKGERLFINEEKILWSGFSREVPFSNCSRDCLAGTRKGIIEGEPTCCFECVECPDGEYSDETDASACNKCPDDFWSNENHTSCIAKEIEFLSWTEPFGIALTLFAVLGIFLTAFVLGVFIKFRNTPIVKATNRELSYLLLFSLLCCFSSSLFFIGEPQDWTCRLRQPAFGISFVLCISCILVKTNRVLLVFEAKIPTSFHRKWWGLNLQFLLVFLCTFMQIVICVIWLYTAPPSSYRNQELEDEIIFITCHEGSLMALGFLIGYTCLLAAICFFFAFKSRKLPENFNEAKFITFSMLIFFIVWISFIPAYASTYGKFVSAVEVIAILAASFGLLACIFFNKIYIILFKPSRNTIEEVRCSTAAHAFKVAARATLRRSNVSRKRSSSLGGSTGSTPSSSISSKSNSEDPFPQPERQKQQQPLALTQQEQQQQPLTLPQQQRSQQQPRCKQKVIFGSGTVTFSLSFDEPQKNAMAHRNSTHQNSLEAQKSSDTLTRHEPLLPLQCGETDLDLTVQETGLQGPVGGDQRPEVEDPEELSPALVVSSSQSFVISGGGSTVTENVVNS
Assay: Positive allosteric modulation of calcium sensing receptor by FLIPR assay in presence of extracellular calcium relative to saturating dose of CaCl2
Type: functional
measurementName: Emax (%)
Write it as a number; the unit % goes unstated.

Solved entries (count: 4):
compound | Emax [%]
COc1ccc(CNC(C)c2cccc(C)c2)cc1-c1ccc(C(F)(F)F)cc1 (configuration not stated) | 99
COc1cccc([C@@H](C)NCc2ccc(OC)c(-c3ccc(C(F)(F)F)cc3)c2)c1 | 87
COc1cccc([C@@H](C)NCc2cccc(-c3ccccc3Cl)c2)c1 | 97
C[C@@H](NCc1ccc(OC(F)(F)F)c(-c2ccc(C(F)(F)F)cc2)c1)c1ccccc1 | 74

What value of Emax has been recorded for this entry: "COc1ccc([C@@H](C)N[C@H](C)c2ccccc2)cc1-c1ccc(C(F)(F)F)cc1" 94

What value of Emax has been recorded for this entry: "COc1cccc([C@@H](C)NCc2ccc(Cl)c(-c3ccc(C(F)(F)F)cc3)c2)c1" 93

What value of Emax has been recorded for this entry: "COc1ccc(CN[C@H](C)c2ccc(F)cc2)cc1-c1ccc(C(F)(F)F)cc1" 87
